- tested target: Human LBAT (Homo sapiens, UniProt Q14973)
- Construct: Geneticin selection
- Sequence (Q14973 1-349): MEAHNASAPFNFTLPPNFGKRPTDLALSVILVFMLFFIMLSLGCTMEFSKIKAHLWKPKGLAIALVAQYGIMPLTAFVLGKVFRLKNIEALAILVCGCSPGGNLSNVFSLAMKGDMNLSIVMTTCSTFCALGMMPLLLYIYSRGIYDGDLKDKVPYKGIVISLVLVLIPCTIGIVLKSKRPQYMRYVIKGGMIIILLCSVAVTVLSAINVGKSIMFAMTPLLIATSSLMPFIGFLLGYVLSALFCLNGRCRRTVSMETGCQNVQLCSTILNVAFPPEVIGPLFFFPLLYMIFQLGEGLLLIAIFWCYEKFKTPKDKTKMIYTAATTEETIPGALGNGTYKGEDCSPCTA
- experiment description: LBAT (h/m) assay, human LBAT-overexpressing cells, 3H-taurocholic acid uptake
- test conditions: 0.3 μM 3H-taurocholic acid and 7.5 μM cold taurocholic acid, 20 minutes, read-out: hLBAT IC50
measured parameter: IC50 (nM)

In [3]: df
Out[3]:
                                   compound  measured_parameter  reported_value
0  CCCC[C@@H]1CN(c2ccc(F)cc2)c2cc(SCC)c(O/C=C/C(=O)O)cc2S(=O)(=O)N1C (single isomer, unassigned)                IC50             267
1  CCCC[C@H]1CN(c2ccccc2)c2cc(SC)c(O/C=C(\F)C(=O)O)cc2S(=O)(=O)N1C (single isomer, unassigned)                IC50              78
2  CCCC[C@@H]1CN(c2ccccc2)c2cc(SC)c(O/C=C/C(=O)O)cc2S(=O)(=O)C1 (single isomer, unassigned)                IC50             469
3  CCCC[C@@H]1CN(c2ccccc2)c2cc(SC)c(O/C=C(\F)C(=O)O)cc2S(=O)(=O)N1C (single isomer, unassigned)                IC50             0.6
4  CCCCC1CN(c2ccccc2)c2cc(SC)c(O/C=C/C(=O)O)cc2S(=O)(=O)N1C (racemic)                IC50             3.4
5  CCCC[C@H]1CN(c2ccc(F)cc2)c2cc(SC)c(O/C=C/C(=O)O)cc2S(=O)(=O)N1C (single isomer, unassigned)                IC50               3

* * *

- tested target: Human LBAT (Homo sapiens, UniProt Q14973)
- Construct: expressed in transfected cells; Geneticin selection
- Sequence (Q14973 1-349): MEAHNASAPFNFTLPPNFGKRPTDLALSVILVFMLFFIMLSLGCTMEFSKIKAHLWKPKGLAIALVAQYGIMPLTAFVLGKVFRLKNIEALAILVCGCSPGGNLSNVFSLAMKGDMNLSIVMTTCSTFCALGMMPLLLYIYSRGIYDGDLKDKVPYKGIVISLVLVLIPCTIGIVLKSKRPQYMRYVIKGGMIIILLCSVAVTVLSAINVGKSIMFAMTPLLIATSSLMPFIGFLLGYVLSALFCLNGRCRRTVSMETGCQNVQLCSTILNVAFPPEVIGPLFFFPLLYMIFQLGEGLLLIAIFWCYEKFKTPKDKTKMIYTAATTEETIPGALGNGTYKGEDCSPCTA
- experiment description: LBAT (h/m) assay, human LBAT-overexpressing cells, 3H-taurocholic acid uptake
- Type: cell-based
- test conditions: 0.3 μM 3H-taurocholic acid and 7.5 μM cold taurocholic acid, 20 minutes, read-out: hLBAT IC50
Let's look at some compounds and their measured IC50.
measured parameter: IC50 (nM)

>>> df
                                   compound  measured_parameter  reported_value
0  CCCC[C@@H]1CN(c2ccccc2)c2cc(SCC)c(O/C=C/C(=O)O)cc2S(=O)(=O)N1C (single isomer, unassigned) [Example 19]                IC50              70
1  CCCC[C@@H]1CN(c2ccccc2)c2cc(SC)c(O/C=C/C(=O)O)cc2S(=O)(=O)N1C (single isomer, unassigned) [Example 16]                IC50             105
2  CCCCC1CN(c2ccc(F)cc2)c2cc(SC)c(O/C=C/C(=O)O)cc2S(=O)(=O)N1C (racemic) [Example 20]                IC50             4.5
3  CCCCC1CN(c2ccccc2)c2cc(SC)c(O/C=C(\F)C(=O)O)cc2S(=O)(=O)N1 (stereo not shown) [Example 10]                IC50               1

* * *

- tested target: Human LBAT (Homo sapiens, UniProt Q14973)
- Construct: Geneticin selection
- experiment description: LBAT (h/m) assay, human LBAT-overexpressing cells, 3H-taurocholic acid uptake
- test conditions: 0.3 μM 3H-taurocholic acid and 7.5 μM cold taurocholic acid, 20 minutes, read-out: hLBAT IC50
measured parameter: log10 of IC50 (log10 of the value in nM)

>>> df
                                   compound  measured_parameter  reported_value
0  CCC1CN(c2ccccc2)c2cc(SC)c(O/C=C(\F)C(=O)O)cc2S(=O)(=O)C1 (centres unmarked) [Example 7]       log10 of IC50            1.86
1  CCCCC1CN(c2ccccc2)c2cc(SC)c(O/C=C/C(=O)O)cc2S(=O)(=O)N1 (centres unmarked) [Example 9]       log10 of IC50            0.91
2  CCCCC1CN(c2ccccc2)c2cc(SC)c(O/C=C/C(=O)O)cc2S(=O)(=O)C1 (racemic) [Example 1]       log10 of IC50            1.00
3  CCCC[C@@H]1CN(c2ccc(F)cc2)c2cc(SC)c(O/C=C/C(=O)O)cc2S(=O)(=O)C1 (single isomer, unassigned) [Example 28]       log10 of IC50            0.28
4  CCCC[C@H]1CN(c2ccc(F)cc2)c2cc(SC)c(O/C=C/C(=O)O)cc2S(=O)(=O)C1 (single isomer, unassigned) [Example 27]       log10 of IC50            2.55

* * *

- experiment description: Bioavailability studies
- Type: in vivo, mice (C57BL/6)
- test conditions: male, mouse, plasma; C57BL/6 mice; single intravenous dose 1 mg/kg and single oral dose 10 mg/kg
Let's look at some molecules and their measured bioavailability.
measured parameter: bioavailability (%)

>>> df
                                   molecule  measured_parameter  unit_abbreviation  reported_value
0  CCCC[C@H]1CN(c2ccccc2)c2cc(SC)c(O/C=C/C(=O)O)cc2S(=O)(=O)N1C (single isomer, unassigned) [Example 15]     bioavailability                  %              50
1  CCCC[C@@H]1CN(c2ccccc2)c2cc(SC)c(O/C=C(\F)C(=O)O)cc2S(=O)(=O)N1C (single isomer, unassigned) [Example 13]     bioavailability                  %              61
2  CCCC[C@H]1CN(c2ccccc2)c2cc(SC)c(O/C=C/C(=O)O)cc2S(=O)(=O)C1 (single isomer, unassigned) [Example 3]     bioavailability                  %              50
3  CCCC[C@@H]1CN(c2ccccc2)c2cc(SC)c(O/C=C(\F)C(=O)O)cc2S(=O)(=O)C1 (single isomer, unassigned) [Example 6]     bioavailability                  %              26

* * *

Let's look at some compounds and their measured pIC50.
- tested target: Human IBAT (Homo sapiens)
- Construct: Puromycin selection
- Sequence (Q12908 whole entry): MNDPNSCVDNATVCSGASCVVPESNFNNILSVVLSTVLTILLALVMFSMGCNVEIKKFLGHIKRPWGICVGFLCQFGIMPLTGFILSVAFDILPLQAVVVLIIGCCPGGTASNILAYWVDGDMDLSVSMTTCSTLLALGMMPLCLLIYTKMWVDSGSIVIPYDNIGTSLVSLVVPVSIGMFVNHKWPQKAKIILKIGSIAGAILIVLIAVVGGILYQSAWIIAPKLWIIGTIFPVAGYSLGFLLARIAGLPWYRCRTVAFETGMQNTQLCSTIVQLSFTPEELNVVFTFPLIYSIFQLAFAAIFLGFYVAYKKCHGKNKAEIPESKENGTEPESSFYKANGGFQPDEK
- experiment description: IBAT (h/m) assay, human IBAT-overexpressing cells, 3H-taurocholic acid uptake
- test conditions: highest test concentration 10 μM, 20 minutes, read-out: hIBAT IC50
pIC50: −log10 of the molar value.
measured parameter: pIC50

                                    compound  comparison_symbol  reported_value
 0  CCCCC1CN(c2ccccc2)c2cc(SC)c(O/C=C(\F)C(=O)O)cc2S(=O)(=O)C1 (stereo not shown)                  =            5.82
 1  CCCCC1CN(c2ccc(F)cc2)c2cc(SCC)c(O/C=C/C(=O)O)cc2S(=O)(=O)N1C (racemic)                  =            5.51
 2  CCCCC1CN(c2ccccc2)c2cc(SC)c(O/C=C(\F)C(=O)O)cc2S(=O)(=O)N1C (stereo not shown)                  =            6.08
 3  CCCCC1CN(c2ccc(F)cc2)c2cc(SC)c(O/C=C/C(=O)O)cc2S(=O)(=O)C1 (racemic)                  <            5.00
 4  CCCC[C@@H]1CN(c2ccc(F)cc2)c2cc(SC)c(O/C=C/C(=O)O)cc2S(=O)(=O)C1 (single isomer, unassigned)                  <            5.48
 5  CCCCC1CN(c2ccc(F)cc2)c2cc(SCC)c(O/C=C/C(=O)O)cc2S(=O)(=O)C1 (stereo not shown)                  <            5.00
 6  CCCC[C@@H]1CN(c2ccccc2)c2cc(SCC)c(O/C=C/C(=O)O)cc2S(=O)(=O)N1C (single isomer, unassigned)                  <            5.00
 7  CCCCC1CN(c2ccc(F)cc2)c2cc(SC)c(O/C=C/C(=O)O)cc2S(=O)(=O)N1C (racemic)                  =            5.94
 8  CCCCC1CN(c2ccccc2)c2cc(SCC)c(O/C=C/C(=O)O)cc2S(=O)(=O)N1 (stereo not shown)                  <            5.00
 9  CCCC[C@@H]1CN(c2ccccc2)c2cc(SC)c(O/C=C(\F)C(=O)O)cc2S(=O)(=O)N1C (single isomer, unassigned)                  =            6.25
10  CCCCC1CN(c2ccccc2)c2cc(SC)c(O/C=C/C(=O)O)cc2S(=O)(=O)C1 (racemic)                  ≤            5.00
11  CCCC[C@H]1CN(c2ccccc2)c2cc(SCC)c(O/C=C/C(=O)O)cc2S(=O)(=O)N1C (single isomer, unassigned)                  =            5.28
12  CCCC[C@H]1CN(c2ccc(F)cc2)c2cc(SC)c(O/C=C/C(=O)O)cc2S(=O)(=O)C1 (single isomer, unassigned)                  <            5.00
13  CCCCC1CN(c2ccccc2)c2cc(SC)c(O/C=C(\F)C(=O)O)cc2S(=O)(=O)N1 (stereo not shown)                  =            5.94
14  CCCC[C@@H]1CN(c2ccc(F)cc2)c2cc(SC)c(O/C=C/C(=O)O)cc2S(=O)(=O)N1C (single isomer, unassigned)                  <            5.00
15  CCCC[C@H]1CN(c2ccc(F)cc2)c2cc(SCC)c(O/C=C/C(=O)O)cc2S(=O)(=O)N1C (single isomer, unassigned)                  =            6.58
16  CCCC[C@H]1CN(c2ccc(F)cc2)c2cc(SC)c(O/C=C/C(=O)O)cc2S(=O)(=O)N1C (single isomer, unassigned)                  =            6.19
17  CCCC[C@@H]1CN(c2ccccc2)c2cc(SC)c(O/C=C(\F)C(=O)O)cc2S(=O)(=O)C1 (single isomer, unassigned)                  =            5.84
18  CCCCC1CN(c2ccccc2)c2cc(SCC)c(O/C=C/C(=O)O)cc2S(=O)(=O)C1 (stereo not shown)                  <            5.00
